Taken from PubChem BioAssay AID1117273.

EXPERIMENT NOTES: inhibitors of orthopox early gene expression, dose response, cell-based, single fluorophore reporter, dry powder (AID 1117273)
REPORTED CONDITIONS: orthopoxvirus-infected cells, early gene fluorescent reporter; at 10 µM; stronger effect = higher value
Activity calls are given as the source filed them. No rule for the calls is given here.
RESULT TYPE: inhibition

Study these solved cases before continuing.
Cc1ccccc1-c1ccc(CN(C)C[C@@H]2Oc3cc(C#C[C@@H](C)O)ccc3S(=O)(=O)N([C@@H](C)CO)C[C@@H]2C)cc1 63.3% (inactive)
C[C@@H](O)C#Cc1ccc2c(c1)O[C@@H](CN(C)Cc1ccc(-c3ccccc3Cl)cc1)[C@@H](C)CN([C@@H](C)CO)S2(=O)=O 59.3% (inactive)
C[C@@H](O)C#Cc1ccc2c(c1)O[C@@H](CN(C)Cc1ccc(-c3ccc(Cl)cc3)cc1)[C@@H](C)CN([C@@H](C)CO)S2(=O)=O 17.2% (inactive)

Alright, here's another molecule for you.
### Prompt Specify inhibition for Cc1cccc(-c2ccc(CN(C)C[C@@H]3Oc4cc(C#C[C@@H](C)O)ccc4S(=O)(=O)N([C@@H](C)CO)C[C@@H]3C)cc2)c1 and stop.
### Response 48% (inactive)
